assay: chemical genetic growth profiling, strain panel (AID 1159580);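 also: tested at 20 µM; growth read once vehicle control cultures reached saturation at 30 °C; 1 = growth at the plate median or of vehicle wells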; conditions: S. cerevisiae deletion strains, growth OD, locus YLR262C, strain YPT6, stronger effect = lower value
The campaign covered roughly 5,500 compounds. About 2,000 (36%) were called active. Another 18% or so got no clear call; they are omitted. Some of the results follow.
Lab note: cut-off is 1. Strictly less in normalized growth is Y. Exactly 1 or more is N.

Worked cases, answers included:
In [3]: df
Out[3]:
                                   compound  discretelabel
0  CC1/C(=N\O)C[C@@H]2C[C@H]1C2(C)C (some centres not stated)              N
1   CC(C)(C)c1ccc(NC(=O)Cc2cc(F)cc(F)c2)cc1              Y
2              CCOC(=O)c1c(C)cc(O)c(C=O)c1O              Y
3     COC(=O)/C(=C/N(C)C)Sc1cc(C)c(Cl)cc1Cl              Y
4  Cc1cccc(C)c1NC(=O)C(C)Oc1ccc(Cl)cc1Cl (configuration not stated)              Y
5  NCC1CCC(C(=O)O)CC1 (configuration not stated)              Y

Q: Consider the compound Cc1cc(O)c(C=O)c(O)c1C(=O)O . Is its normalized growth strictly less than 1?
Ans: N

###

test: chemical genetic growth profiling, strain panel (AID 1159580);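 also: tested at 20 µM; growth read once vehicle control cultures reached saturation at 30 °C; 1 = growth at the plate median or of vehicle wells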; conditions: S. cerevisiae deletion strains, growth OD, locus YPR025C, strain CCL1, stronger effect = lower value
Hit rate of the full screen: of about 5,500 compounds, about 2,000 (36%) were called active. Roughly 18% stayed inconclusive and do not appear here. Some of the results follow.
measuredMetric: normalized growth
Give bare numbers.

Observe how each entry below is paired with its result.
>>> print(df.to_string())
                                   compound     measuredmetric  recordedresult
0       COc1ccc(/C=C2\CSc3ccc(F)cc3C2=O)cc1  normalized growth           0.958
1  CC(=O)CSc1nnc(-c2ccc(C(C)(C)C)cc2)n1-c1ccc(Cl)cc1  normalized growth           0.976
2  O=C1C(=O)N(CN2CCc3c([nH]c4ccccc34)C2C(F)(F)F)c2ccc(F)cc21 (stereo not drawn)  normalized growth           0.993

Please state, for each entry, its recorded normalized growth.
1. Cc1nn(Cc2cccc(C(=O)Nc3ccc(Cl)cc3)c2)c(C)c1Br
2. CC(C)(C)CN/C(C#N)=C(/C#N)NCc1cccc(Cl)c1
3. Cc1ccc(/C=C2\CSc3ccc(F)cc3C2=O)cc1
4. O=C(N/C=C/c1ccsc1)Nc1cc(C(F)(F)F)cc(C(F)(F)F)c1
5. Cc1ccc(Sc2c(Sc3ccc(C)cc3)c(=O)c2=O)cc1

Ans:
0.974
0.986
0.958
0.98
0.957

Provide normalized growth for all items below, preserving their order.
1. O=C(Oc1ccc(C(F)(F)F)cc1[N+](=O)[O-])c1cccc(Cl)c1
2. Cc1ccc(OCC2SCCN2C(=O)c2ccc(C(F)(F)F)cc2)c([N+](=O)[O-])c1 (stereo not drawn)
3. Cc1cc(Cl)ccc1NNC(=O)c1snnc1C
4. CCOC(=O)CSC(=S)NCc1ccc(C)cc1
5. S=C(Nc1ccc(Cl)cc1Cl)N(c1cccc(Cl)c1)c1nc2ccccc2s1
6. Cc1cc(Cl)ccc1NNC(=O)c1ccno1
7. N#CC(C#N)=C(SCc1c(Cl)cccc1Cl)SCc1c(Cl)cccc1Cl
8. Cc1c(Cc2ccc(F)cc2)c(=O)oc2cc(O)ccc12

Ans:
1: 0.937; 2: 1.01; 3: 0.955; 4: 0.943; 5: 0.961; 6: 0.975; 7: 0.996; 8: 0.977

Please state normalized growth for every compound in the list that follows.
1. CS(=NC(=O)c1cccc(Cl)c1)c1ccc(OC(=O)c2ccc(Cl)cc2)cc1 (stereo not drawn)
2. Cc1cc(NNC(=O)c2ccccc2Cl)nc2c1c(C)nn2C
3. Cc1cc(C(=O)Nc2ccc(Cl)cc2)nn1C(C)(C)C
4. COc1cc2c(cc1OC)C(C)N(C(=O)c1sc3ccccc3c1Cl)CC2 (stereo not drawn)
5. Cc1ccc(-c2csc(-c3cccnc3)n2)c(C)c1

Ans:
0.968
0.993
0.999
0.976
0.959

Below is a list of compounds. For each, state its recorded normalized growth.
1. COc1cc(NC(=S)N(C)C)c(OC)cc1Cl
2. N#Cc1ccc(S(=O)(=O)Nc2ccccc2Oc2ccc(Cl)cc2Cl)cc1

Ans:
1: 0.999; 2: 0.976
